# System: ARAF (human), P10398 [Y301D/Y302D]
# Sequence (P10398 whole entry Y301D/Y302D, looked up): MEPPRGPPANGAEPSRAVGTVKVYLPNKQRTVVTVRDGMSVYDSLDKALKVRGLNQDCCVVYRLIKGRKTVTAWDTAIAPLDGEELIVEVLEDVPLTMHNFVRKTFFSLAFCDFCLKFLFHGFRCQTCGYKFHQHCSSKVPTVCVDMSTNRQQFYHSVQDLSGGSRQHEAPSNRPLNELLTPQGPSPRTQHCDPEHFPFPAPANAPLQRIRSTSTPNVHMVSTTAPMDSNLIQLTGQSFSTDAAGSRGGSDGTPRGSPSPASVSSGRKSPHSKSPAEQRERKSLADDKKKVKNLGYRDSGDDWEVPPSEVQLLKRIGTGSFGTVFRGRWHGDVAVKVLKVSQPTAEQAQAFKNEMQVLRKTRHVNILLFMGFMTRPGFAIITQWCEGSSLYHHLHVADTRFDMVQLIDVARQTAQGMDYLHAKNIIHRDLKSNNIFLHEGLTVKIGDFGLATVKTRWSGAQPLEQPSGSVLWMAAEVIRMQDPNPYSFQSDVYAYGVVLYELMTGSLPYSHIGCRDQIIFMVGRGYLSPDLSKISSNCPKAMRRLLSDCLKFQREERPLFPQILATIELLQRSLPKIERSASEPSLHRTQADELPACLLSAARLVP
# TEST_DESCRIPTION: radiometric filter-binding kinase assay, Kinase HotSpot
# CONDITIONS: compound 0.5 µM; ATP 10 µM
Would you kindly list residual activity for each of these molecules?
One number for each entry, in %.

COc1ccc(OC)c2c(=S)c3ccccc3[nH]c12 = 122
COc1cc2c(N3CCN(C(=O)Nc4ccc(OC(C)C)cc4)CC3)ncnc2cc1OCCCN1CCCCC1 = 103

Working through the 7 molecules below one at a time, give residual activity for each.
1. O=C1NC(=O)/C(=C/c2ccc3c(c2)OC(F)(F)O3)S1
2. Nc1nc(Nc2ccc(S(N)(=O)=O)cc2)nn1C(=S)Nc1c(F)cccc1F
3. O=C1Nc2ccc(Br)cc2/C1=C\c1cc2c([nH]1)CCCC2
4. COc1cc2ncnc(Nc3ccc(F)c(Cl)c3)c2cc1OCCCN1CCOCC1
5. CCN(CC)CCNC(=O)c1c(C)[nH]c(/C=C2\C(=O)Nc3ccc(F)cc32)c1C
6. CSc1nc(-c2ccc(F)cc2)c(-c2ccnc(NC(C)c3ccccc3)c2)[nH]1 (configuration not stated)
7. C[C@@H]1CCN(C(=O)CC#N)C[C@@H]1N(C)c1ncnc2[nH]ccc12

1. 104
2. 129
3. 106
4. 95.3
5. 124
6. 99
7. 102

Parameters: items (list). Returns: residual activity for each item.
1. N#C/C(=C\c1ccc(O)c(O)c1)C(=O)NCc1ccccc1
2. COc1cc(Nc2c(C#N)cnc3cc(OCCCN4CCN(C)CC4)c(OC)cc23)c(Cl)cc1Cl
3. O=C1Nc2cc(Br)ccc2/C1=C1/Nc2ccccc2/C1=N\O
4. Cc1ccc(NC2=CC(=O)c3sc(C)nc3C2=O)cc1
5. CN(C)C[C@H]1CCn2c(c(C3=C(c4cn(C)c5ccccc45)C(=O)NC3=O)c3ccccc32)C1
6. O=C1NC(=O)c2c1c1c3ccccc3[nH]c1n1cncc21

[95.2, 109, 99.8, 127, 109, 93.8]
